- TARGET_UNDER_TEST: P-gp (Rattus norvegicus, UniProt Q6PSM0)
- Sequence (Q6PSM0 1-1272): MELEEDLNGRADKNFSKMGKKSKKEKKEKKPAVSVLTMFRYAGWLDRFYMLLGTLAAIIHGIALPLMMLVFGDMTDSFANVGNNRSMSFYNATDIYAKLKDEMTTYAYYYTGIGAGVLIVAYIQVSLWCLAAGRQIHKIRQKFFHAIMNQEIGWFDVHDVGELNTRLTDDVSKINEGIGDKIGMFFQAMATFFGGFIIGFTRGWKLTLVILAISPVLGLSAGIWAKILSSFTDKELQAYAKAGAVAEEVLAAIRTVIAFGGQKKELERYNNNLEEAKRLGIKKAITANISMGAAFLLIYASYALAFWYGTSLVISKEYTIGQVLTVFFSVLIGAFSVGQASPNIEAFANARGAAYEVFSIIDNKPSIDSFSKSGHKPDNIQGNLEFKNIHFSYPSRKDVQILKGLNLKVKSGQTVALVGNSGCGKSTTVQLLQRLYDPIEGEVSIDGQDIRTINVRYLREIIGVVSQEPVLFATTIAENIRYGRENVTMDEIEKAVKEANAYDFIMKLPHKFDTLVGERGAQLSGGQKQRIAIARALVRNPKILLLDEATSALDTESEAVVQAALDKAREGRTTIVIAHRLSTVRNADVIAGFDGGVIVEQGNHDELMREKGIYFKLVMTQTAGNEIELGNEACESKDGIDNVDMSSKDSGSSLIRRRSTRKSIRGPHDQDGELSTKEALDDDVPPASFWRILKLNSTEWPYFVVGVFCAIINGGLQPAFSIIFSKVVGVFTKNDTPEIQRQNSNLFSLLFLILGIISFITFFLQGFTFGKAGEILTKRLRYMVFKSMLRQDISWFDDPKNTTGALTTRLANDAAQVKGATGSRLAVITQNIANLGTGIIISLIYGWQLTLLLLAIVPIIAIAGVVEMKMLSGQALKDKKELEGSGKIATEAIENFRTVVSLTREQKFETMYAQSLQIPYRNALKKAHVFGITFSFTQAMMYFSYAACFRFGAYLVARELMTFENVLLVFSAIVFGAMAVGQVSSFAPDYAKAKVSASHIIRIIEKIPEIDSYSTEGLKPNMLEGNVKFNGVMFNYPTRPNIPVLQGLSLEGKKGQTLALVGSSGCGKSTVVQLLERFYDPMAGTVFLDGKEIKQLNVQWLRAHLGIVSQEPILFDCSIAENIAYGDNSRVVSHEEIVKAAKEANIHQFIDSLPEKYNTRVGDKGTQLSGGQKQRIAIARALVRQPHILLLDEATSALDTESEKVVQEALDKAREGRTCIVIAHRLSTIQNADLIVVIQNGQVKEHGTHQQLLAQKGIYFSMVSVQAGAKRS
- MEASUREMENT_PROTOCOL: in vivo
- DETAILS: Sprague Dawley, NFV brain:plasma concentration ratio, not corrected for vascular contamination, absence of CsA, 120 min
Structures can show the parent of a compound that is named as a salt.
RESULT_TYPE: Kp at 2 h
Answers are plain numbers.

Given Cc1c(O)cccc1C(=O)N[C@@H](CSc1ccccc1)[C@H](O)CN1C[C@H]2CCCC[C@H]2C[C@H]1C(=O)NC(C)(C)C [NFV, Nelfinavir mesylate] , report its Kp at 2 h on P-gp (Rattus norvegicus, UniProt Q6PSM0). 0.044

====

- TARGET_UNDER_TEST: P-gp (Rattus norvegicus)
- MEASUREMENT_PROTOCOL: in vivo
- DETAILS: Sprague Dawley, NFV brain:plasma concentration ratio corrected for vascular contamination, absence of CsA, 120 min
Structures can show the parent of a compound that is named as a salt.
RESULT_TYPE: Kp at 2 h
Numbers only.

Supply recorded Kp at 2 h for Cc1c(O)cccc1C(=O)N[C@@H](CSc1ccccc1)[C@H](O)CN1C[C@H]2CCCC[C@H]2C[C@H]1C(=O)NC(C)(C)C [NFV, Nelfinavir mesylate] here. 0.014

====

- TARGET_UNDER_TEST: P-gp (Rattus norvegicus, UniProt Q6PSM0)
- MEASUREMENT_PROTOCOL: in vivo
- DETAILS: Sprague Dawley, NFV brain:plasma ratio, uncorrected for vascular content, with maximum P-gp inhibition by CsA
Counter-ions that a name gives are not always drawn.
RESULT_TYPE: Kp at 120 min
One number for each entry.

Supply recorded Kp at 120 min for Cc1c(O)cccc1C(=O)N[C@@H](CSc1ccccc1)[C@H](O)CN1C[C@H]2CCCC[C@H]2C[C@H]1C(=O)NC(C)(C)C [NFV, Nelfinavir mesylate] here. 0.93
